Target: SHP2-C SH2;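 further: peptide library displayed on the E. coli surface as eCPX fusions, selected cells deep-sequenced, score is each peptide's frequency after selection divided by its frequency in the input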
Experiment: SH2 binding enrichment of the phosphorylated peptide, bacterial display (enrichment ratio); higher = better substrate or ligand; peptides without Tyr show the background
A collection of sequences and their measured SH2 binding enrichment

PGIRMYQVQFN [LRFN1_Y454_YF] : 1.12
KLIMEYLPYGS [JAK2_Y931] : 0.742
RVQKRYILDNV [RCN1_Y115_F117L] : 0.553
VKGGAYNPVTV [MCCC2_Y145_Y146N] : 0.558
PNRILYGDFWQ [MYH6_Y717_R721W] : 0.666
CSEEMYRLMLQ [RET_Y981] : 0.549
GANSEYIIAEK [ECHS1_Y35_F33S] : 0.487
VMIFAYLLHRG [PTEN_Y138_C136Y_YF] : 1.52

Sure, the documented SH2 binding enrichment for ITRDEYPSNPM [CEMIP2_Y1015] is 0.629

Lab book: SH2 binding enrichment of DLDFTYIYPNI [PTEN_Y27_L25F] noted as 0.496

Record summary for NPSFNYEIVNQ [DYNC1H1_Y3379_R3384Q_YF] : reported SH2 binding enrichment = 0.579

Field SH2 binding enrichment (entry VGEGPYLLSDL [ABCC12_Y7_I9L] ) reads 0.547

Record MAFDRYVAVCA [OR52J3_Y125] . Reported SH2 binding enrichment: 0.647
